- TEST_TARGET: AtACO1 (Arabidopsis thaliana)
- Sequence (Q9ZUN4 1-310): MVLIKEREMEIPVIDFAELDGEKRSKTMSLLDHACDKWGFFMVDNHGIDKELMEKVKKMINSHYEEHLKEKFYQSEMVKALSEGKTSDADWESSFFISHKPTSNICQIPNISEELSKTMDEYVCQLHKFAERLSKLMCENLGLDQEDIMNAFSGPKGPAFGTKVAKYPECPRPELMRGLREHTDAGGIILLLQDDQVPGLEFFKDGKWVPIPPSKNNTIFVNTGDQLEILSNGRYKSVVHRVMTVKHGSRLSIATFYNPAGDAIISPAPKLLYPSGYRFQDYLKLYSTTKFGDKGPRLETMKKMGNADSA
- ASSAY_REMARKS: ACO enzymatic activity assay, kinetic analysis
- Type: biochemical
- RECORDED_CONDITIONS: varying ACC, 200 μM POA, unit inferred
PROPERTY_NAME: Ki
# output: numeric value plus its unit

What measured Ki goes with O=C(O)c1cnccn1 [POA, pyrazinecarboxylic acid] ?
317 µM

###

- TEST_TARGET: AtACO2 (Arabidopsis thaliana, UniProt Q41931)
- Sequence (Q41931 1-303): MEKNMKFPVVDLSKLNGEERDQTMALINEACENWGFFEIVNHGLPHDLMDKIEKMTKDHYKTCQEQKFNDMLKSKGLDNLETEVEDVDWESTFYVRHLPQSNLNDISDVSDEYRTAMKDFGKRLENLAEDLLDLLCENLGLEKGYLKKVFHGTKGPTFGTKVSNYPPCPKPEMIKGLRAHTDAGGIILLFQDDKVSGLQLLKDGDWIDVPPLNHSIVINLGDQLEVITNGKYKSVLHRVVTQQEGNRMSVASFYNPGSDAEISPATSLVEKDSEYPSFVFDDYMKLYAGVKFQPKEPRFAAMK
- ASSAY_REMARKS: ACO enzymatic activity assay and kinetic analysis (ethylene by GC-FID)
- RECORDED_CONDITIONS: recombinant AtACO2, ethylene by GC-FID; read-out: IC50, inhibition of AtACO2 activity
PROPERTY_NAME: pIC50
pIC50 (log units): -log10 of the concentration in mol/L.

Lab note: need pIC50 with AtACO2 (Arabidopsis thaliana, UniProt Q41931) for entry O=C(O)c1cnccn1 [POA, pyrazinecarboxylic acid] , please look it up.
4.14

###

- TEST_TARGET: AtACO5 (Arabidopsis thaliana)
- Sequence (Q0WPW4 1-307): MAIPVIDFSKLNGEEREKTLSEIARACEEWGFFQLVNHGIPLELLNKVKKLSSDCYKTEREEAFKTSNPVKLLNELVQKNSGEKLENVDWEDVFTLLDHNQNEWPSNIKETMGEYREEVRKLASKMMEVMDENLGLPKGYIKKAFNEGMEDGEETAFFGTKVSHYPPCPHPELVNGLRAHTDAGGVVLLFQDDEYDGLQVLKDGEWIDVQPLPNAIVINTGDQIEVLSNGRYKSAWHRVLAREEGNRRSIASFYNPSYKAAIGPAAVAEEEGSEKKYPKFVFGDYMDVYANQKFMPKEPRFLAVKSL
- ASSAY_REMARKS: ACO enzymatic activity assay, kinetic analysis
- Format: biochemical
- RECORDED_CONDITIONS: varying ACC, 200 μM POA, unit inferred
PROPERTY_NAME: Ki (µM)
Unit µM implied. Number only.

Given the entry O=C(O)c1cnccn1 , what Ki was observed with AtACO5 (Arabidopsis thaliana)?
722

###

- TEST_TARGET: UniProtKB Q41931
PROPERTY_NAME: pKi
Notebook: values listed as pKi are -log10 of the concentration (mol/L).

Return pKi measured with UniProtKB Q41931 given this molecule: O=C(O)c1cnccn1 [POA, pyrazinecarboxylic acid]
4.05

###

- TEST_TARGET: AtACO2 (Arabidopsis thaliana)
- ASSAY_REMARKS: Isothermal titration calorimetry
- Format: binding
- RECORDED_CONDITIONS: ITC, in the presence of Fe2+, 25 °C; read-out: dissociation constant (KD), AtACO2
PROPERTY_NAME: Kd (µM)
Just the number in µM, nothing appended.

// query Kd value for entry O=C(O)c1cnccn1
14.8

###

- TEST_TARGET: the other four ACO proteins in Arabidopsis (AtACO1, AtACO3, AtACO4 and AtACO5)
- ASSAY_REMARKS: ACO kinetic analysis, span over the other four ACO proteins
- RECORDED_CONDITIONS: span over AtACO1, 3, 4, 5
PROPERTY_NAME: Ki

Which measured Ki value corresponds to O=C(O)c1cnccn1 ?
187 to 722 µM

###

- TEST_TARGET: AtACO2 (Arabidopsis thaliana)
- ASSAY_REMARKS: Isothermal titration calorimetry
- Type: binding
- RECORDED_CONDITIONS: ITC, in the presence of Zn2+, 25 °C; read-out: dissociation constant (KD), AtACO2
PROPERTY_NAME: Kd (µM)
Field: numeric (µM). Do not append units.

// lookup Kd for O=C(O)c1cnccn1
10.2

Now, please, on to the next molecule.
Can you look up the measured Kd of O=C(O)c1ccccn1 for me?
2.8

###

- TEST_TARGET: AtACO4 (Arabidopsis thaliana)
- Sequence (Q06588 whole entry): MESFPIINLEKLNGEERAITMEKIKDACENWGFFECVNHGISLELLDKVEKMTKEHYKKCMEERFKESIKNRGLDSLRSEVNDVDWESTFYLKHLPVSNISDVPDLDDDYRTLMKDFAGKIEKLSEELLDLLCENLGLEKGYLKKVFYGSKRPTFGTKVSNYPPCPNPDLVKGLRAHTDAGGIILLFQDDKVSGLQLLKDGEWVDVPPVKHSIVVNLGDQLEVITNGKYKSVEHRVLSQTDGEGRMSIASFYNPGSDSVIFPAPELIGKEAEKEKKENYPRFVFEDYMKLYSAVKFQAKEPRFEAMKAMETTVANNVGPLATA
- ASSAY_REMARKS: ACO enzymatic activity assay, kinetic analysis
- Format: biochemical
- RECORDED_CONDITIONS: varying ACC, 200 μM POA, unit inferred
PROPERTY_NAME: Ki (µM)
Record the value in µM, omitting the unit from your answer.

Param readout = Ki; param system = AtACO4 (Arabidopsis thaliana); param query = O=C(O)c1cnccn1 ; response: value
195
